Reference source for all entries: patent US5814649A

Histamine amount, after OVA challenge overview
System: histamine
assay remarks: Plasma histamine level before and after induction of anaphylactic shock by OVA (Example 1)
Format: in vivo, BN/Crj rats (female)
experimental conditions: 10 mg/kg orally once a day, day 10, after OVA challenge, ± SD
Give the value in µM but do not write µM after it.

Solved cases (3 shown):
1) Cc1cc(NC(=O)C(C#N)C(=O)C2CC2)ccc1C(F)(F)F (centres unmarked); 1.3
2) C#CCCC(=O)C(C#N)C(=O)Nc1ccc(C(F)(F)F)cc1 (centres unmarked); 0.1
3) CN(C(=O)C(C#N)C(=O)C1CC1)c1ccc(Cl)cc1 (centres unmarked); 0.1

Specify Histamine amount, after OVA challenge for `C/C(O)=C(\C#N)C(=O)Nc1ccc(C(F)(F)F)cc1` , system histamine.
0.1

Specify Histamine amount, after OVA challenge for N#Cc1ccc(NC(=O)C(C#N)C(=O)C2CC2)cc1 (centres unmarked) , system histamine.
0.6
